Molecular target: Bs164 (Bacteroides salyersiae)
Construct: gene HMPREF1071_03408; tag cut by 3C protease for kinetics, His6-tagged for crystals
Sequence (I9SUA3 22-673): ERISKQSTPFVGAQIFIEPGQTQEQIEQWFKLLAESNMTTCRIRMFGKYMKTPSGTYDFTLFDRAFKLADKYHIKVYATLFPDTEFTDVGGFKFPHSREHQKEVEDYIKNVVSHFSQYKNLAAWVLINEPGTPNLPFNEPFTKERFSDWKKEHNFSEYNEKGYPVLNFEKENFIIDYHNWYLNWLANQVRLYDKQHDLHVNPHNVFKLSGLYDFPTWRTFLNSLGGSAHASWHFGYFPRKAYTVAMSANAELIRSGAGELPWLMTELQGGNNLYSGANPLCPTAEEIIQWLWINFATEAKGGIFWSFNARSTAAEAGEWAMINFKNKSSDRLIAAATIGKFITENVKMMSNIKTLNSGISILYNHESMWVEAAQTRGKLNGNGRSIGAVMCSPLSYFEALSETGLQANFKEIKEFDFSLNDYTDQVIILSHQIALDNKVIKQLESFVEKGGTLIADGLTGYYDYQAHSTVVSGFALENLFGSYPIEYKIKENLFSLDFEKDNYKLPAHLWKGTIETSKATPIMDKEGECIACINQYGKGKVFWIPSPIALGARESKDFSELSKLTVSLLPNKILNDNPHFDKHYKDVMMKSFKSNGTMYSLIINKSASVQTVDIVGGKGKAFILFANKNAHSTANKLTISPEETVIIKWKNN
Assay: inhibition of pNP β-Man hydrolysis, absorbance, competitive model fit
Type: biochemical
MEASURE: Ki (µM)

{"COMPOUND": "OC[C@@H]1[C@@H](O)[C@H](O)[C@H](O)c2nccn21 [mannoimidazole]", "TEST VALUE": 470}
